# measurement notes: Pharmacokinetics in NHP plasma after single s.c. injection
# run conditions: male, cynomolgus monkey, plasma, sc, 2 mg/kg, Cmax, single s.c. 2 mg/kg, NHP plasma, two animals
The entries below come with measured Cmax values attached.
Numbers only; they are read as µM.

>  <compound>
CC[C@H](C)[C@H](NC(=O)[C@H](N)Cc1ccc(O)cc1)C(=O)N[C@H]1CSSC[C@@H](C(=O)N(C)[C@H](C(N)=O)[C@@H](C)CC)NC(=O)[C@H](CCCNC(=N)N)NC(=O)[C@H](Cc2c[nH]cn2)NC(=O)[C@H](C)NC(=O)CN(C)C(=O)[C@H](Cc2c[nH]c3ccccc23)NC(=O)[C@H](CC(=O)O)NC(=O)[C@H](CCC(N)=O)NC(=O)[C@H](Cc2cn(C)c3ccccc23)NC(=O)[C@H](C(C)C)NC1=O [Cp40, reference compound]

>  <Cmax [µM]>
6.2

$$$$

Please examine the following record next.
Lab note: CC[C@H](C)[C@H](NC(=O)[C@H](N)Cc1ccc(O)cc1)C(=O)N[C@H]1CSSC[C@@H](C(=O)N(C)[C@H](C(=O)N[C@@H](CCCCN)C(=O)N[C@@H](CCCCN)C(N)=O)[C@@H](C)CC)NC(=O)[C@H](CCCNC(=N)N)NC(=O)[C@H](Cc2c[nH]cn2)NC(=O)[C@H](C)NC(=O)CN(C)C(=O)[C@H](Cc2c[nH]c3ccccc23)NC(=O)[C@H](CC(=O)O)NC(=O)[C@H](CCC(N)=O)NC(=O)[C@H](Cc2cn(C)c3ccccc23)NC(=O)[C@H](C(C)C)NC1=O [Cp40-KK] gave Cmax of 12.9

* * *

# measurement notes: Pharmacokinetics in NHP plasma after single s.c. injection
# run conditions: single s.c. 2 mg/kg, NHP plasma, two animals; 2 mg/kg
measured metric: Cmax (µM)
Numbers only; they are read as µM.

Lab note: CC[C@H](C)[C@H](NC(=O)[C@H](N)Cc1ccc(O)cc1)C(=O)N[C@H]1CSSC[C@@H](C(=O)N(C)[C@H](C(N)=O)[C@@H](C)CC)NC(=O)[C@H](CCCNC(=N)N)NC(=O)[C@H](Cc2c[nH]cn2)NC(=O)[C@H](C)NC(=O)CN(C)C(=O)[C@H](Cc2c[nH]c3ccccc23)NC(=O)[C@H](CC(=O)O)NC(=O)[C@H](CCC(N)=O)NC(=O)[C@H](Cc2cn(C)c3ccccc23)NC(=O)[C@H](C(C)C)NC1=O [Cp40, reference compound] gave Cmax of 5.53

* * *

# measurement notes: Plasma concentration after multiple injections in NHP
# Assay type: in vivo, cynomolgus monkeys
# run conditions: cynomolgus monkey, plasma, sc; 2 mg/kg every 48 hrs; read-out: observed Cmax after multiple s.c. dosing
measured metric: Cmax

Lab note: CC[C@H](C)[C@H](NC(=O)[C@H](N)Cc1ccc(O)cc1)C(=O)N[C@H]1CSSC[C@@H](C(=O)N(C)[C@H](C(=O)N[C@@H](CCCCN)C(=O)N[C@@H](CCCCN)C(=O)N[C@@H](CCCCN)C(N)=O)[C@@H](C)CC)NC(=O)[C@H](CCCNC(=N)N)NC(=O)[C@H](Cc2c[nH]cn2)NC(=O)[C@H](C)NC(=O)CN(C)C(=O)[C@H](Cc2c[nH]c3ccccc23)NC(=O)[C@H](CC(=O)O)NC(=O)[C@H](CCC(N)=O)NC(=O)[C@H](Cc2cn(C)c3ccccc23)NC(=O)[C@H](C(C)C)NC1=O [Cp40-KKK] gave Cmax of ≥ 20 µM
